# target_system: DNA-PK (Homo sapiens (Human))
# assay_explanation: DNA-PK/Biochemical Assay (FlashPlate kinase assay)
# assay_setup: 5 μM ATP, 90 min, room temperature
# Protocol: The kinase assay was carried out in streptavidin-coated […] microtitre FlashPlates®. […] A non-specific reaction (blank value) was determined using 10 μM of a proprietary kinase inhibitor. The radioactivity measurement was carried out by means of a TopCount. IC50 values were calculated in RS1. • Literature: Kashishian et al. (2003) Molecular Cancer Therapeutics 1257.
pIC50: −log10 of the molar value.
measured_endpoint: pIC50

Worked set:
{"columns": ["molecule", "measured_endpoint", "test_value"],
 "data": [
  ["COc1cc2c(cc1OCCN(C)C)ncc1c2c(-c2ccc(C#N)cc2)nn1C [Compound 46]", "pIC50", "< 6.30"],
  ["CCn1nc(-c2ccc(C#N)cc2)c2c3cc(OC)c(OC)cc3ncc21 [Compound 56]", "pIC50", "> 7.00"],
  ["COc1cc2ncc3c(c(-c4ccc(C#N)cc4)nn3C)c2cc1OCc1nccs1 [Compound 39]", "pIC50", "> 7.00"]
]}

Q: Tell us which pIC50 value is on record for COC(=O)C(Oc1cc2c(cc1OC)ncc1c2c(-c2ccc(C#N)cc2)nn1C)c1ccc(F)cc1 (centres unmarked) [Compound 18]
A: 6.30 to 7.00

Q: Tell us which pIC50 value is on record for COc1cc2ncc3c(c(-c4ccc(C#N)cc4)nn3C)c2cc1OCc1ccncc1 [Compound 11]
A: > 7.00

Q: Tell us which pIC50 value is on record for COc1cc2ncc3c(c(-c4ccc(C#N)cc4)nn3C)c2cc1OC(F)(F)c1ccccc1 [Compound 17]
A: 6.30 to 7.00

Q: Tell us which pIC50 value is on record for COc1cc2ncc3n[nH]c(-c4ccc(C#N)c(-c5ccccc5)c4)c3c2cc1OC [Compound 74]
A: < 6.30

Q: Tell us which pIC50 value is on record for COc1cc2ncc3c(c(-c4ccc(C#N)cc4F)nn3C)c2cc1-c1cc[nH]c1 [Compound 89]
A: > 7.00

Q: Tell us which pIC50 value is on record for COc1cc2ncc3c(c(-c4ccc(C#N)cc4)nn3CC#N)c2cc1OC [Compound 66]
A: > 7.00

Q: Tell us which pIC50 value is on record for COCCNC(=O)C(Oc1cc2c(cc1OC)ncc1c2c(-c2ccc(C#N)cc2)nn1C)c1ccc(F)cc1 (centres unmarked) [Compound 55]
A: > 7.00

Q: Tell us which pIC50 value is on record for COc1cc2ncc3c(c(-c4ccc(C#N)cc4)nn3C)c2cc1OC(C(=O)NO)c1ccc(F)cc1 (centres unmarked) [Compound 53]
A: > 7.00

----------
Parameter melting point: see the listing below.
Reply numerically in °C, unit not repeated.

Worked set:
{"columns": ["compound", "melting point / °C"],
 "data": [
  ["COc1cc2c(cc1O)ncc1c2c(-c2ccc(C#N)cc2)nn1C [Compound 4]", 288.9],
  ["COc1cc2ncc3c(c(-c4ccc(C#N)cc4)nn3C)c2cc1OCCN(C)C [Compound 40]", 212.2],
  ["COc1cc2ncc3c(c(-c4ccc(C#N)cc4)nn3C)c2cc1OC(C(N)=O)c1ccc(F)cc1 (stereo not drawn) [Compound 8]", 249.2]
]}

Now examine the next entry.
Q: Tell us which melting point value is on record for CCn1nc(-c2ccc(C#N)cc2)c2c3cc(OC)c(OC)cc3ncc21 [Compound 56]
A: 227.4
